Ki by entry:
- subject-of-test: Papain (Carica papaya, UniProt P00784)
- Sequence (P00784 whole entry): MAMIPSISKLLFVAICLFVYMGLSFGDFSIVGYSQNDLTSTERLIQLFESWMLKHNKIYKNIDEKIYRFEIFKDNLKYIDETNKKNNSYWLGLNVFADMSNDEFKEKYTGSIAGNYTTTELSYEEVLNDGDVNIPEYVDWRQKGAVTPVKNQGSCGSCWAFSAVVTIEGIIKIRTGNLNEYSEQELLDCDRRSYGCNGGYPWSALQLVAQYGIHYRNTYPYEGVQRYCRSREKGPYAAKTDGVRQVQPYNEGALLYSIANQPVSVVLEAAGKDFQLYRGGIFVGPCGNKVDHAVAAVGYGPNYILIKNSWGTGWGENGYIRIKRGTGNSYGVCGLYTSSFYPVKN
- assay-summary: Inhibitory activity against papain; Weak competitive inhibitor

COC(=O)CCCNC(=O)C(Cc1ccccc1)NC(C)=O (configuration not stated)
> 5 mM

Lab note: next molecule to report on.
**Query** Which value of Ki has been reported for C=CCNC(=O)C(Cc1ccccc1)NC(C)=O (configuration not stated) in the records?
**Result** > 5 mM
